// provenance: patent US7202243B2

Biological target: PDE 10A (Homo sapiens, UniProt Q9Y233)
Construct: is expressed recombinantly in full length in Sf9 insect cells
Sequence (Q9Y233 1-779 isoform Q9Y233-1): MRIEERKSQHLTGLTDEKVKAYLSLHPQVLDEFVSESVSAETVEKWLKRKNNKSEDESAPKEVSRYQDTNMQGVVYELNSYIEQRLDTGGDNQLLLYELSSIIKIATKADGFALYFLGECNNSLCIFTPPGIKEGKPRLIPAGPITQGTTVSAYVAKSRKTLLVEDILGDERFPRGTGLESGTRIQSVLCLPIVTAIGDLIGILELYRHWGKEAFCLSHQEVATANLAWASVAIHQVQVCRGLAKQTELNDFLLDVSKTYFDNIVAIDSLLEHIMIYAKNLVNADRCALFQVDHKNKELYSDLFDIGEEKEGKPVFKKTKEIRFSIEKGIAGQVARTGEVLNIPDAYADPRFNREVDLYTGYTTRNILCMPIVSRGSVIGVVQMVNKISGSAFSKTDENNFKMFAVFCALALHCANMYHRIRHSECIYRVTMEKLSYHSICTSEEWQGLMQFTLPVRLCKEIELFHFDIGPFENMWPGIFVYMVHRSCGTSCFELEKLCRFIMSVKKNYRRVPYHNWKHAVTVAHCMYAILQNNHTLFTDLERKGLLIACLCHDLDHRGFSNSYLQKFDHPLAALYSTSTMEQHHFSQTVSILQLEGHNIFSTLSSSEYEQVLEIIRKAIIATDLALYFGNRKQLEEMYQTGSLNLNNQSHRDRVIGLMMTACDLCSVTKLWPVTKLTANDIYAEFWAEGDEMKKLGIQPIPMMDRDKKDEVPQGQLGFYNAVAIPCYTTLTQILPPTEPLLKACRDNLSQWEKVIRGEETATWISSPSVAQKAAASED
Experiment: Inhibition of PDE 10A (in vitro enzyme inhibition test, [3H]cAMP scintillation proximity assay)
Details: recombinant full-length PDE 10A expressed in Sf9 insect cells; substrate [5',8-3H] cAMP; 60 min at 20° C.
pIC50: −log10 of the molar value.
Listed next: entries and their corresponding pIC50.
measurement_label: pIC50

> print(dat)
                           molecular.string  measured.value
1  COc1cc(Oc2nc(-c3ccc(NC(C)=O)cc3)nn3c(C)nc(C)c23)cc(OC)c1OC            7.43
2  COc1cc(Nc2nc(-c3cccc(NS(C)(=O)=O)c3)nn3c(C)nc(C)c23)cc(OC)c1OC            7.37
3  COc1cc(Oc2nc(-c3cccc(NC(C)=O)c3)nn3c(C)nc(C)c23)cc(OC)c1OC            7.52
4  COc1cc(Nc2nc(-c3ccc(NC=O)cc3)nn3c(C)nc(C)c23)cc(OC)c1OC            8.10
5  COc1cc(Nc2nc(-c3ccc(NC(=O)CO)cc3)nn3c(C)nc(C)c23)cc(OC)c1OC            8.22
